Each recorded value in this set is attributed to PubChem BioAssay AID1996.

# condition-set: buffer; pH 7.4; 200.0 µM
Would you kindly list solubility kinetic for each of these compounds?

NC(Cc1ccccc1)c1nc(-c2ccccc2)no1 (configuration not stated): > 39.8 µg/mL
Fc1cccc(F)c1/C=N/N1CCOCC1: > 33.9 µg/mL
O=C(NCc1ccco1)c1ccc2nccnc2c1: > 38 µg/mL

I would be grateful if you could provide solubility kinetic for each of the following entries.
1. C=CCN1C(=S)N[C@@H]2CS(=O)(=O)C[C@@H]21
2. O=C(Nc1ccccc1Cl)Nc1ccccc1Cl

## Output
> 34.8 µg/mL
< 0.3 µg/mL

* * *

Would you kindly list solubility kinetic for each of these compounds?
# condition-set: buffer; pH 7.4; 200.0 µM

Would you please look over these solved cases?
CCN(CC)C(=O)CSc1nnc(SC(C)C(=O)NC2CC2)s1 (stereo not drawn): > 56.2 µg/mL
COc1cc(N2CCCC2)c(OC)cc1C=O: > 35.3 µg/mL

Here is the next item to consider.
## Input # input compound: `Cc1nn(-c2ccccc2)c2nc(N)c(C(N)=O)cc12` ; wanted: its solubility kinetic
## Output > 40.1 µg/mL

* * *

Would you kindly list solubility kinetic for each of these compounds?
# condition-set: buffer; pH 7.4; 200.0 µM
Give bare numbers, in µg/mL.

COc1cccc2cc(C(=O)NCCc3ccccc3)oc12: 26.9

Here is the next item to consider.
## Input # input compound: `CCc1noc(C)c1C(=O)OCC(=O)c1ccc(OC)c(OC)c1` ; wanted: its solubility kinetic
## Output 46

* * *

# condition-set: buffer; pH 7.4; 200.0 µM
assay-readout: log10(solubility kinetic) (log10 of the value in µg/mL)
Heads up: the numbers are on a log10 scale; they represent solubility kinetic in µg/mL.

Would you please look over these solved cases?
CC(C)CN(C(=O)CSc1nc2ccccc2c(=O)[nH]1)c1c(N)n(CC(C)C)c(=O)[nH]c1=O: 1.02
CSc1ccc(CN2CCC(Cc3ccccc3)CC2)cc1: 1.25
Cc1ccc(N2C(=O)CCC2=O)c(C)c1: 1.45

I would be grateful if you could provide log10(solubility kinetic) for each of the following entries.
1. O=C(C1CCCN(S(=O)(=O)c2ccc(Cl)cc2)C1)N1CCCC1 (stereo unspecified)
2. CC(C)[C@H](NC(=O)NC1CCN(Cc2ccccc2)CC1)C(=O)O
3. Cc1ccc(S(=O)(=O)N(C)c2ccc(OC(=O)c3cccs3)cc2)cc1
4. Cc1nc(NS(=O)(=O)c2cccc([N+](=O)[O-])c2)sc1C(C)(C)C

## Output
1: 1.69; 2: 1.30; 3: 0.08; 4: 0.73

I would be grateful if you could provide log10(solubility kinetic) for each of the following entries.
1. CSc1cccc(NC(=O)c2cccc3cccnc23)c1
2. O=C(NC(=S)Nc1ccc2oc(=O)ccc2c1)c1ccccc1F
3. Clc1cccc(CN2CCCCCC2)c1
4. CCCCN(C)C(=O)c1nc2ccccn2c1CN1CCSCC1
5. O=C(NC1CCCC1)C1CCN(S(=O)(=O)c2ccccc2)CC1
6. COc1ccccc1NC(=O)COc1cccnc1[N+](=O)[O-]

## Output
[0.76, 0.15, 1.16, 1.68, 1.65, 0.63]

I would be grateful if you could provide log10(solubility kinetic) for each of the following entries.
1. COc1ccc(NC(=O)c2ccc3c(c2)OCO3)cc1
2. N#C/C(=C\c1ccc(OCC(N)=O)cc1)S(=O)(=O)c1ccccc1

## Output
[0.58, 0.97]

* * *

# condition-set: buffer; pH 7.4; 200.0 µM
Would you kindly list solubility kinetic for each of these compounds?

Would you please look over these solved cases?
S=C1NCCNC(=S)NCCOCCOCCOCCN1: > 50.5 µg/mL
COc1ccc(NC(=S)NCCCN2CCOCC2)cc1: > 46.4 µg/mL

Here is the next item to consider.
## Input # input compound: `CCN(CC(=O)NC1CC1)S(=O)(=O)c1ccccc1` ; wanted: its solubility kinetic
## Output > 42.4 µg/mL

* * *

# condition-set: buffer; pH 7.4; 200.0 µM
assay-readout: solubility kinetic

Would you please look over these solved cases?
O=c1cc(CN2CCOCC2)c2cc(Cl)ccc2o1: > 42 µg/mL
O=S(=O)(Nc1nccs1)c1ccc(NS(=O)(=O)c2c(F)cc(F)c(Cl)c2F)cc1: > 72.6 µg/mL
Cc1cccc(NC(=S)N2CCN(c3ccccn3)CC2)c1: 6.7 µg/mL

## Input # input compound: `COCCn1c(N)c(Sc2ccc(C)cc2)c(=O)[nH]c1=O` ; wanted: its solubility kinetic
## Output > 46.1 µg/mL

* * *

# condition-set: buffer; pH 7.4; 200.0 µM
assay-readout: solubility kinetic

CCC(C)[C@H](NC(=O)N1CCCCC1)C(=O)OC (stereo not given in full): > 38.5 µg/mL
COc1ccc(CCOC(=O)c2cccc(NC(C)=O)c2)cc1: > 47 µg/mL
CC(CNC(=O)c1ccc(C#N)cc1)NC(=O)c1ccc(C#N)cc1 (stereo not given): > 49.9 µg/mL
C=CCN(CC=C)C(=S)NC(=O)c1ccc(OC)cc1: > 43.6 µg/mL

Here is the next item to consider.
## Input # input compound: `CCCCc1c(C)nc2ccccc2c1SCCC(=O)O` ; wanted: its solubility kinetic
## Output > 45.5 µg/mL

* * *

# condition-set: buffer; pH 7.4; 200.0 µM
Would you kindly list solubility kinetic for each of these compounds?

Would you please look over these solved cases?
COCCN(CCOC)C(=O)Nc1ccc(Cl)cc1: > 43 µg/mL
COc1ccc(CNC(=O)c2cc3ccccc3oc2=O)cc1: < 0.7 µg/mL
CC(C)c1ccccc1NC(=S)NC1CCCCC1: > 41.5 µg/mL
CC(C)=CC(=O)OCC(=O)Nc1cc(C)cc(C)c1: 3.7 µg/mL
Cc1ccc(N2C(S)=C(C#N)C(=O)NC2c2ccco2)cc1 (stereo not given): > 46.7 µg/mL
O=C(CN1CCN(Cc2ccccc2F)C1=O)NC1CCCC1: > 47.9 µg/mL
Cc1ccc(C(=O)Nc2ccc(Nc3ccccc3)cc2)c(Cl)c1: < 0.4 µg/mL
Cc1c(Cl)cccc1NC(=O)C1C2C=CC(C2)C1C(=O)O (stereo not given): > 45.9 µg/mL

I would be grateful if you could provide solubility kinetic for each of the following entries.
1. CC(=O)Nc1ccc2sc(C)nc2c1
2. Cc1cccc(NC(=O)c2ccccc2C(=O)Nc2cccc(C)c2)c1
3. Cc1c(C(=O)N2CCCCC2)oc2ccccc12
4. CC(=O)c1ccc(N2CCN(C3CCC(C(C)(C)C)CC3)CC2)cc1 (stereo not given)
5. O=C(c1cccc([N+](=O)[O-])c1)c1ccc2[nH]c(=O)[nH]c2c1
6. COC(=O)c1c(Sc2ccccc2)c2ccccc2n1C
7. COc1cccc(NC(=O)CN(C)CC(=O)NC(C)c2ccccc2)c1 (stereo not given)

## Output
["> 30.9 µg/mL", "3 µg/mL", "32 µg/mL", "0.8 µg/mL", "8 µg/mL", "< 0.6 µg/mL", "41.4 µg/mL"]

I would be grateful if you could provide solubility kinetic for each of the following entries.
1. C[Se]C[C@@H](N)C(=O)O.Cl
2. Cc1nc(C)c(C(=O)Nc2cccc(F)c2)s1
3. O=C(CCSCc1ccccc1F)NCc1cccnc1
4. COc1cccc(NC(=O)CC(=O)c2ccccc2)c1
5. O=C(Nc1ccccc1O)c1ccc2c(c1)C(=O)N(c1ccccc1)C2=O
6. Cn1ccnc1C(=O)Cc1ccc([N+](=O)[O-])cc1
7. C=Cn1cc[n+](CC(=O)c2ccc(OC)c(OC)c2)c1.[Br-]
8. O=S(=O)(NCc1ccccn1)c1ccc(Cl)c(C(F)(F)F)c1

## Output
> 32.8 µg/mL
> 37.5 µg/mL
> 45.7 µg/mL
> 40.4 µg/mL
< 0.4 µg/mL
35.2 µg/mL
> 53 µg/mL
16.5 µg/mL

* * *

Would you kindly list solubility kinetic for each of these compounds?
# condition-set: buffer; pH 7.4; 200.0 µM

Would you please look over these solved cases?
c1cncc(-c2csc(-c3cccnc3)n2)c1: > 35.9 µg/mL
CC1CC(C)(C)NC(=S)N1CCCC(=O)Nc1ccccc1F (stereo unspecified): > 50.6 µg/mL
O=C(Cc1ccc(Br)cc1)NCCCn1ccnc1: > 48.3 µg/mL
Cn1c(SCC(=O)Nc2ccc3c(c2)OCCO3)nnc1-c1ccncc1: > 57.5 µg/mL
COc1cccc(NC2=NCCCCC2)c1: > 32.7 µg/mL

## Input # input compound: CC(OC(=O)c1cccs1)C(=O)NCCc1ccccc1 (stereo unspecified) ; wanted: its solubility kinetic
## Output > 45.5 µg/mL

* * *

# condition-set: buffer; pH 7.4; 200.0 µM
assay-readout: solubility kinetic

Cc1ccc(S(=O)(=O)NCCCN2CCCC2)cc1: > 42.4 µg/mL
CC1(C)NC(=O)N(CC(=O)OCC(=O)c2ccc(Br)s2)C1=O: > 58.4 µg/mL
O=S(=O)(NCc1nc2ccccc2[nH]1)c1ccccc1: > 43.1 µg/mL
COc1cc(N(C)C)c([N+](=O)[O-])cc1C(=O)N1CCOCC1: > 46.4 µg/mL
Cc1cccc(C)c1NC(=O)CSc1n[nH]c(=O)n1C1CC1: > 47.8 µg/mL

I would be grateful if you could provide solubility kinetic for each of the following entries.
1. Cc1csc(NC(=O)c2cc(C)on2)n1
2. CS(=O)(=O)c1ccc(Cl)c(C(=O)NCC2CCCCC2)c1
3. CC1(C(=O)OCC(=O)Nc2ccc(Cl)cn2)CC1(Cl)Cl (stereo not drawn)
4. CCOc1ccc(S(=O)(=O)N(CC)CC(=O)N2CCCC2)cc1
5. CN1CCN(C(=O)c2cc3cc(F)ccc3[nH]2)CC1
6. CC(CN1CCCCC1)NC(=O)c1cccs1 (stereo not drawn)

## Output
["> 33.5 µg/mL", "> 49.5 µg/mL", "> 50.6 µg/mL", "> 51.1 µg/mL", "> 39.2 µg/mL", "> 37.9 µg/mL"]

I would be grateful if you could provide solubility kinetic for each of the following entries.
1. CN(C)c1ncc(S(=O)(=O)c2ccccc2)c(=O)[nH]1
2. O=c1c2[nH]cnc2n(-c2cccc(F)c2)c(=O)n1Cc1ccccc1

## Output
> 41.9 µg/mL
> 50.4 µg/mL
